These measurements were taken from patent US20240301052A1.

Molecular target: T1, Rhesus SLC34A2 (Rhesus, UniProt F7HDA3 1-690)
T1 construct: whole, on cells
T1 sequence: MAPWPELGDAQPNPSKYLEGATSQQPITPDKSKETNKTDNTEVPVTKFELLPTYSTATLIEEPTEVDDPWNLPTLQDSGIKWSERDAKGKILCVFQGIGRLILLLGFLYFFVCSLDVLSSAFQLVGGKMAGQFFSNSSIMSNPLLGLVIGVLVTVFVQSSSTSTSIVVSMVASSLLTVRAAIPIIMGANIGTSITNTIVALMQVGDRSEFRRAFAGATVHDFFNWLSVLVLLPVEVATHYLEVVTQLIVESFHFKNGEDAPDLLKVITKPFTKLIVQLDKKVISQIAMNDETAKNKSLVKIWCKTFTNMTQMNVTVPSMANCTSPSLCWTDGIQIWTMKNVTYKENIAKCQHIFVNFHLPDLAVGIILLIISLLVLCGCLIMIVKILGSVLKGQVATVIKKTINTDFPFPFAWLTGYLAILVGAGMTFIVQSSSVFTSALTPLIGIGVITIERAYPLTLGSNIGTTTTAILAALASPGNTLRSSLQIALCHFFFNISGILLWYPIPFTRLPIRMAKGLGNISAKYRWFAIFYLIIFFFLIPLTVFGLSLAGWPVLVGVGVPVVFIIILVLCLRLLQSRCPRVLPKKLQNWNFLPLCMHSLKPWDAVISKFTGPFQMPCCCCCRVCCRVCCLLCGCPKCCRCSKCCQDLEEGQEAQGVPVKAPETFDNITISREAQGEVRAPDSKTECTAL
Experiment: FACS, HEK293/Rhesus SLC34A2 cells
Measured Endpoint: EC50 (nM)
Give just the number in nM; leave the unit off.

Record excerpt, results attached:
>>> value_reported("30H9B8F9.p1.z9 hIgG1 (antibody, V domains shown, humanized hIgG1) VH: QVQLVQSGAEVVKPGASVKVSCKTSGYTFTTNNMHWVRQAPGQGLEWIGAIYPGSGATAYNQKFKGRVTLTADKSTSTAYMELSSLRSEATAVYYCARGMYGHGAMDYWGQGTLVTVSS VL: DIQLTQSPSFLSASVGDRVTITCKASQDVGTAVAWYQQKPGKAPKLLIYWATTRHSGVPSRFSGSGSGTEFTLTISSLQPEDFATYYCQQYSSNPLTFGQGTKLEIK")
0.9
>>> value_reported("62G10E4G8.p3.z8 hIgG1 (antibody, V domains shown, humanized hIgG1) VH: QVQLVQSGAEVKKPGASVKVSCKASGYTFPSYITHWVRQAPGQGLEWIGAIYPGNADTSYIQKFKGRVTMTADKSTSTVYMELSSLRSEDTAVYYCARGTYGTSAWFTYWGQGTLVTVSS VL: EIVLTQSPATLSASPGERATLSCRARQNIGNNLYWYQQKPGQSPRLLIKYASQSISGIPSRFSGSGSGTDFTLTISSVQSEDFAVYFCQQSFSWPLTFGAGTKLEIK")
2.5

Challenge: Which measured EC50 value corresponds to 63A11D5B4.p1.z9 hIgG1 (antibody, V domains shown, humanized hIgG1) VH: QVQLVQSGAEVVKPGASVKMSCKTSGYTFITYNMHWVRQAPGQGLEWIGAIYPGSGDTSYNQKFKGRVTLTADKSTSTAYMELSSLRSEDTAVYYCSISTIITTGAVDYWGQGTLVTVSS VL: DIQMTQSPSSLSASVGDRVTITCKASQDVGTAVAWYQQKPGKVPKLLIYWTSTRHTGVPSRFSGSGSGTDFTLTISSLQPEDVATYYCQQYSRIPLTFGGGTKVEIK ?
Response given: 1.6
